Kindly state CC50 at 5 days for each of the entries shown.
- protocol-description: Test B: Cytotoxicity Assay
- Format: cell-based
- assay-conditions: human, uninfected MT4 cells, same protocol as Test A
Numbers only, in µM.

// worked examples, CC50 at 5 days included
- compound: "CN(C(=O)[C@H](Cc1cccc(C(F)(F)F)c1)NC(=O)Cn1nc(C(F)(F)F)c2c1CCCC2)c1ccccc1 [Compound 21]"
  unit-descriptor: "µM"
  measured-number: 11.3
- compound: "CN(C(=O)[C@H](Cc1cccs1)NC(=O)Cn1nc(C(F)(F)F)c2c1CCCC2)c1ccccc1 [Compound 8]"
  unit-descriptor: "µM"
  measured-number: 25.6
- compound: "CN(C(=O)[C@H](Cc1cc(F)cc(F)c1)NC(=O)Cn1[nH]c(=O)c2c1CCCC2)c1ccc(Cl)cc1 [Compound 30]"
  unit-descriptor: "µM"
  measured-number: 22.2

Proceeding to the next compound to report its CC50 at 5 days.
Request: Would you kindly share the measured CC50 at 5 days for CN(C(=O)[C@H](Cc1cc(F)cc(F)c1)NC(=O)Cn1nc(C(F)(F)F)c2c1CCCC2)c1ccc(F)cc1 [Compound 24] ?
Result: 12.2

----------
- protocol-description: Test B: Cytotoxicity Assay
- Assay type: cell-based
- assay-conditions: human, uninfected MT4 cells, same protocol as Test A
For each record, write down the corresponding CC50 at 5 days.
Answers are plain numbers, in µM.

These recorded examples may help you get a feel for the data.
- compound: "COc1ccc(N(C)C(=O)[C@H](Cc2cc(F)cc(F)c2)NC(=O)Cn2nc(C(F)(F)F)c3c2CC(C)CC3)cc1 (stereo partly shown)"
  CC50 at 5 days / µM: 11.1
- compound: "CN(C(=O)[C@H](Cc1cccc(C#N)c1)NC(=O)Cn1nc(C(F)(F)F)c2c1CCCC2)c1ccccc1"
  CC50 at 5 days / µM: 26.3
- compound: "COc1ccc(N(C)C(=O)[C@H](Cc2cc(F)cc(F)c2)NC(=O)Cn2nc(C(F)(F)F)c3c2CCCC3)cc1"
  CC50 at 5 days / µM: 12.5

Look up CC50 at 5 days for the entries below, preserving their order.
1. COc1ccc(N(C)C(=O)[C@H](Cc2cc(F)cc(F)c2)NC(=O)Cn2nc(C(F)(F)F)c3c2CCC(=O)C3)cc1
2. CN(C(=O)[C@H](Cc1csc2ccccc12)NC(=O)Cn1nc(C(F)(F)F)c2c1CCCC2)c1ccccc1

Result:
1. 37.2
2. 10.5

----------
- protocol-description: Test B: Cytotoxicity Assay
- Format: cell-based
- assay-conditions: human, uninfected MT4 cells, same protocol as Test A
Hi there, I'd appreciate the recorded CC50 at 5 days for every entry that follows.

A selection of reference data follows.
- molecule: "CN(C(=O)[C@H](Cc1cscn1)NC(=O)Cn1nc(C(F)(F)F)c2c1CCCC2)c1ccccc1"
  CC50 at 5 days: "> 53 µM"
- molecule: "COc1ccc(N(C)C(=O)[C@H](Cc2cc(F)cc(F)c2)NC(=O)Cn2nc(C(F)(F)F)c3c2C(C)CCC3)cc1 (stereo partly shown)"
  CC50 at 5 days: "9.82 µM"
- molecule: "CN(C(=O)[C@H](Cc1cccc(C(N)=O)c1)NC(=O)Cn1nc(C(F)(F)F)c2c1CCCC2)c1ccccc1"
  CC50 at 5 days: "> 53 µM"
- molecule: "COc1ccc(N(C)C(=O)[C@H](Cc2ccccc2)NC(=O)Cn2nc(C(F)(F)F)c3c2CCCC3)cc1"
  CC50 at 5 days: "18.4 µM"
- molecule: "CN(C(=O)[C@H](Cc1ccccn1)NC(=O)Cn1nc(C(F)(F)F)c2c1CCCC2)c1ccccc1"
  CC50 at 5 days: "> 53 µM"

Working through the 4 molecules below one at a time, give CC50 at 5 days for each.
1. CN(C(=O)[C@H](Cc1cccc(Br)c1)NC(=O)Cn1nc(C(F)(F)F)c2c1CCCC2)c1ccccc1
2. COc1ccc(N(C)C(=O)[C@H](Cc2cc(F)cc(F)c2)NC(=O)Cn2nc(C(F)(F)F)c3c2CCC2(C3)OCCO2)cc1
3. CN(C(=O)[C@H](Cc1cccnc1)NC(=O)Cn1nc(C(F)(F)F)c2c1CCCC2)c1ccccc1
4. CN(C(=O)[C@H](Cc1ccccc1)NC(=O)Cn1nc(C(F)(F)F)c2c1CCCC2)c1ccc2ccccc2c1

Result:
["17.3 µM", "19.9 µM", "> 53 µM", "11.1 µM"]

Hi there! I need CC50 at 5 days for each item below, if you can.
1. CN(C)c1ccc(N(C)C(=O)[C@H](Cc2ccccc2)NC(=O)Cn2nc(C(F)(F)F)c3c2CCCC3)cc1
2. COc1ccc(N(C)C(=O)[C@H](Cc2cc(F)cc(F)c2)NC(=O)Cn2nc(C(F)(F)F)c3c2CCC(C)(O)C3)cc1 (stereo partly shown)

Result:
1: 19.2 µM; 2: 32.1 µM

Hi there! I need CC50 at 5 days for each item below, if you can.
1. CN(C(=O)[C@H](Cc1cccc(Cl)c1)NC(=O)Cn1nc(C(F)(F)F)c2c1CCCC2)c1ccccc1
2. CN(C(=O)[C@H](Cc1cc(F)cc(F)c1)NC(=O)Cn1nc(C(F)(F)F)c2c1C(F)(F)C1CC21)c1ccc2c(c1)CNC2=O (stereo partly shown)
3. CN(C(=O)[C@H](Cc1ccncc1)NC(=O)Cn1nc(C(F)(F)F)c2c1CCCC2)c1ccccc1
4. CN(C(=O)[C@H](CC1CCC1)NC(=O)Cn1nc(C(F)(F)F)c2c1CCCC2)c1ccccc1
5. CN(C(=O)[C@H](Cc1cc(F)cc(F)c1)NC(=O)Cc1cc(F)cc2c1OCOC2)c1ccc(Cl)cc1

Result:
16.7 µM
> 53 µM
> 53 µM
29 µM
18.4 µM
